FYI, the data here is from paper PMC9224512.

target: human arginase type I S137C (Homo sapiens, UniProt P05089, S137C); test: Kinetic and inhibition studies, S137C mutant; conditions: read-out: Ki^orn
OUTCOME_MEASURE: Ki (mM)
Give bare numbers, in mM.

*Q* Quick one: Ki for `NCCC[C@H](N)C(=O)O` ?
*A* 7.6

---

biological target: human arginase type I N139D (Homo sapiens, UniProt P05089, N139D); experiment: Kinetic and inhibition studies, N139D mutant; details: read-out: Ki^orn
OUTCOME_MEASURE: Ki
In your response, the unit should come after the numeric value.

*Q* What measured Ki goes with `NCCC[C@H](N)C(=O)O` ?
*A* 6.2 mM

---

molecular target: type I human arginase D181T/V182E (Homo sapiens, UniProt P05089, D181T/V182E); construct: made in house; host or cells: E. coli JM109; test: Kinetic and inhibition studies, D181T/V182E double mutant; assay type: biochemical; settings: substrate arginine

MOLECULE | MEASURED_ON | Inhibition type
NCCCCN [Putrescine, putrescine] | type I human arginase D181T/V182E (Homo sapiens, UniProt P05089, D181T/V182E) | competitively inhibited
NCCCC[C@H](N)C(=O)O [Lysine, lysine] | type I human arginase D181T/V182E (Homo sapiens, UniProt P05089, D181T/V182E) | competitively inhibited

---

Target: human arginase type I S137C-N139D (Homo sapiens, UniProt P05089, N139D/S137C)
Sequence (P05089 1-322 S137C/N139D): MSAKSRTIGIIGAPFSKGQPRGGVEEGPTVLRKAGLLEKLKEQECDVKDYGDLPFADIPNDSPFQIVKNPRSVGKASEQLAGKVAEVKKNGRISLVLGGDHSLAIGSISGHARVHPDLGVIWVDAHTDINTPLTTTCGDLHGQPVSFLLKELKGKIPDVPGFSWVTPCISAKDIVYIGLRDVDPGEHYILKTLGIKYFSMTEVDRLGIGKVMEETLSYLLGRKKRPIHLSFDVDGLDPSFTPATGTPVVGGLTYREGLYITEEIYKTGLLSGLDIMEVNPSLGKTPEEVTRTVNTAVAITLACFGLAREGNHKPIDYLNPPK
Assay: Kinetic and inhibition studies, S137C-N139D mutant
Details: read-out: Ki^orn
OUTCOME_MEASURE: Ki (mM)
Give bare numbers, in mM.

*Q* Fill in the recorded Ki for this compound, with human arginase type I S137C-N139D (Homo sapiens, UniProt P05089, N139D/S137C) as test system: NCCC[C@H](N)C(=O)O [Ornithine, L-ornithine]
*A* 8.4
